Origin of measurements: patent US20210379035A1

Assay: Single-dose renal impairment PK and safety study in non-Fabry subjects (Example 1)
Format: in vivo, human
Conditions: human, plasma, oral, 150 mg, single 150 mg migalastat HCl, non-Fabry; Moderate (N = 8); read-out: t1/2 (converted)
Excerpt: The eGFR was estimated by the Cockcroft-Gault equation per the FDA Guidance for renal impairment studies. Volunteers were enrolled into two cohorts stratified for renal function calculated using the Cockcroft-Gault equation for creatinine clearance (CLCR). Subjects were assigned to groups based on an estimated CLCR at screening as calculated using the Cockcroft-Gault equation. […]

smiles.entry: OC[C@H]1NC[C@H](O)[C@@H](O)[C@H]1O
half-life / h: 22.2

====

assay: ERT-naïve study population PK from sparse blood sampling; type: in vivo, human; settings: human, plasma; ERT-naïve Fabry patients; 48 h

smiles.entry: OC[C@H]1NC[C@H](O)[C@@H](O)[C@H]1O
unit.descriptor: ng/mL
concentration at 48 h: 8.7
